# target_entity: GCase (Homo sapiens, UniProt P04062)
# Construct: endogenous in cells; host or cells: HeLa cells
# Sequence (P04062 40-536): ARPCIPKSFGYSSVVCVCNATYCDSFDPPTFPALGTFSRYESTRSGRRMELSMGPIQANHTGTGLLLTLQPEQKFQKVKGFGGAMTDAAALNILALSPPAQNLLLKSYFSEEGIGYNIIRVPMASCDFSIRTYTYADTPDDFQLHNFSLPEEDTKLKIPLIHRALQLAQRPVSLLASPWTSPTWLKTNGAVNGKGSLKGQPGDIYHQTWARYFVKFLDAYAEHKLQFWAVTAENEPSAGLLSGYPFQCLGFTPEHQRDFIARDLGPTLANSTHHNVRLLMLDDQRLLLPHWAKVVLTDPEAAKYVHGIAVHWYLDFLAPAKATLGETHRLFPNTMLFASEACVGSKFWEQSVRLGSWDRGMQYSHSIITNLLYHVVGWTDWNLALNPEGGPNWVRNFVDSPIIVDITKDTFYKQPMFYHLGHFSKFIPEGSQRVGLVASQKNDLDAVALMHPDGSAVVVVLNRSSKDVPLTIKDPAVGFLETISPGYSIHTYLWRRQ
# assay: activation of GCase in a live cell PFB assay in HELA cells
# Format: cell-based
# settings: EC50 given as range classes
pEC50: −log10 of the molar value.
metric_name: pEC50

Here's what some known entries look like.
{"columns": ["compound", "experimental_value"],
 "data": [
  ["Cc1nn(CC(F)F)c2nc(N3CCC4(CN(c5cnc(C(F)(F)F)nc5)C4)C3)cnc12", "< 4.00"],
  ["FC(F)Cn1ncc2ncc(N3CC4(CCN(c5cncc(C(F)(F)F)c5)C4)C3)nc21", "4.30 to 5.00"],
  ["Cc1nc(N2CC3(CCN(c4cnc5c(C)nn(CC(F)(F)F)c5n4)C3)C2)cc(C(F)(F)F)n1", "4.00 to 4.30"],
  ["Cc1ccc(C(=O)N2CC3(CCN(c4cnc5cnn(CC(F)F)c5n4)C3)C2)cc1", "4.30 to 5.00"],
  ["Cc1nn(CC(F)F)c2nc(N3CCC4(CC3)CC(=O)N(c3ccnc(C(F)(F)F)c3)C4)n(C)c(=O)c12", "> 5.00"],
  ["Cn1c(N2CCC3(CN(c4ccnc(C(F)(F)F)c4)C3)C2)nc2c(cnn2C2COC2)c1=O", "4.00 to 4.30"],
  ["FC(F)(F)c1ncc(N2CC3(CCN(c4cncc(-c5nnc(C(F)(F)F)s5)n4)C3)C2)cn1", "> 5.00"]
]}

With those in mind, consider the next compound.
// assay GCase (Homo sapiens, UniProt P04062), entry Cn1c(N2CCC3(CN(c4ccnc(C(F)(F)F)c4)C3)C2)nc2c(cnn2CC(F)(F)F)c1=O , pEC50 value = 4.30 to 5.00

----------
# target_entity: GCase (Homo sapiens, UniProt P04062)
# Construct: endogenous in cells; host or cells: HeLa cells
# assay: activation of GCase in a live cell PFB assay in HELA cells
# Format: cell-based
# settings: activation of GCase, EC50 ranges
pEC50: −log10 of the molar value.
pEC50 for assorted molecules

Solved cases below.
{"columns": ["molecule", "pEC50"],
 "data": [
  ["FC(F)Cn1ncc2ncc(N3CC4(CCCN(c5cccnc5C(F)(F)F)C4)C3)nc21 [Compound 9]", "> 5.00"],
  ["O=C1CC2(CCN(c3cnc4cnn(C5COC5)c4n3)CC2)CN1c1cncc(C(F)(F)F)n1 [Cmpd 277]", "4.30 to 5.00"],
  ["O=C1N(c2ccc(C(F)(F)F)nc2)CCC12CCN(c1cnc3cnn(C4COC4)c3n1)CC2 [Cmpd 886]", "4.30 to 5.00"]
]}

For O=C1CC2(CCN(c3cnc4cnn(CC(F)F)c4n3)CC2)CN1c1ccnc(C(F)(F)F)c1 [Cmpd 683] the molecule record lists pEC50 as > 5.00

Briefly, pEC50 measured for O=C1N(c2ncccc2C(F)(F)F)CCC12CCN(c1cnc3cnn(CC(F)F)c3n1)CC2 [Cmpd 679] : 4.30 to 5.00

Record FC(F)Cn1ncc2ncc(N3CCCC4(CC(Oc5ncccc5C(F)(F)F)C4)C3)nc21 (centres unmarked) [Compound 32] . Reported pEC50: 4.30 to 5.00

For reference, reported pEC50 for Cc1cc(N2CC3(CCN(c4cnc5c(C)nn(CC(C)(F)F)c5n4)C3)C2)nc(C(F)(F)F)n1 [Cmpd 1129] stands at > 5.00

// sample FC(F)Cn1ncc2ncc(N3CCC4(CCN(c5ccc(C(F)(F)F)nc5)C4)C3)nc21 (centres unmarked) [Cmpd 482] , its pEC50 was 4.30 to 5.00
